Values compiled from patent US7276337B2.

Target: Ribonuclease A (Bos taurus, UniProt P61823)
Sequence (P61823 27-150): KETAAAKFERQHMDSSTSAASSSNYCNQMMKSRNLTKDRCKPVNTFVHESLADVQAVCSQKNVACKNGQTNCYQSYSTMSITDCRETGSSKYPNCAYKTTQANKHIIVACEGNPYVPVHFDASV
Test: Visual detection ribonuclease assay, cleavage of Substrate ODN by RNase A
Assay type: biochemical, mammalian
Set-up: key: +++ = maximum intensity; ++ = moderate intensity; + = faint but above background; − = negative (identical to background)
Details: RNase A 100 pg/ml; visual inspection, UV excitation; Substrate 500 nM; 37° C. 60 minutes
Procedure: Nuclease assays were conducted using the methods of the invention. […] Assay Mixes were incubated at room temperature for 10 minutes. Assays were visually examined for fluorescence emission directly in the assay tubes without further manipulation. […] Table 6: Sensitivity of different Substrate ODNs to Ribonuclease A. A series of Substrate ODNs were synthesized and tested for sensitivity to RNase A degradation. […] Results were scored as +++, ++, +, or − based on relative signal intensity. […]
READOUT_TYPE: Sensitivity of Substrate ODN to Ribonuclease A, relative signal intensity

Examples from the recorded data:
>  <SUBSTANCE>
5′ Fluorescein-AAgAA-Dabcyl 3′ (NAAGAAN; 5' fluorescein and 3' Dabcyl labels, nucleotide chemistry not given here) [SEQ ID NO:4]

>  <OBS_VALUE>
−

$$$$
>  <SUBSTANCE>
5′ Fluorescein-AcguA-Dabcyl 3′ (NACGUAN; 5' fluorescein and 3' Dabcyl labels, nucleotide chemistry not given here) [SEQ ID NO:15]

>  <OBS_VALUE>
+

$$$$
>  <SUBSTANCE>
5′ Fluorescein-AaggucA-QSY-7 3′ (NAAGGUCAN; 5' fluorescein and 3' QSY-7 labels, nucleotide chemistry not given here) [SEQ ID NO:28]

>  <OBS_VALUE>
++

$$$$
>  <SUBSTANCE>
5′ Fluorescein-AAcAA-Dabcyl 3′ (NAACAAN; 5' fluorescein and 3' Dabcyl labels, nucleotide chemistry not given here) [SEQ ID NO:5]

>  <OBS_VALUE>
+

$$$$
>  <SUBSTANCE>
5′ Fluorescein-AAuAA-Dabcyl 3′ (NAAUAAN; 5' fluorescein and 3' Dabcyl labels, nucleotide chemistry not given here) [SEQ ID NO:3]

>  <OBS_VALUE>
+

$$$$
>  <SUBSTANCE>
5′ Fluorescein-AcgcA-Dabcyl 3′ (NACGCAN; 5' fluorescein and 3' Dabcyl labels, nucleotide chemistry not given here) [SEQ ID NO:13]

>  <OBS_VALUE>
+

$$$$

[in] What Sensitivity of Substrate ODN to Ribonuclease A, relative signal intensity value was documented for this substance, 5′ Fluorescein-AAaAA-Dabcyl 3′ (NAAAAAN; 5' fluorescein and 3' Dabcyl labels, nucleotide chemistry not given here) [SEQ ID NO:6] ?
[out] −

[in] Okay, and 5′ Fluorescein-AaugcA-QSY-7 3′ (NAAUGCAN; 5' fluorescein and 3' QSY-7 labels, nucleotide chemistry not given here) [SEQ ID NO:29] ?
[out] +++

[in] Okay, and 5′ Fluorescein-AgcuAA-Dabcyl 3′ (NAGCUAAN; 5' fluorescein and 3' Dabcyl labels, nucleotide chemistry not given here) [SEQ ID NO:11] ?
[out] −

[in] Okay, and 5′ Fluorescein-AagucA-Dabcyl 3′ (NAAGUCAN; 5' fluorescein and 3' Dabcyl labels, nucleotide chemistry not given here) [SEQ ID NO:24] ?
[out] +
